- measurement-target: human FXR (NR1H4) (Homo sapiens, UniProt Q96RI1)
- Sequence (Q96RI1 whole entry, the tested form may be a part): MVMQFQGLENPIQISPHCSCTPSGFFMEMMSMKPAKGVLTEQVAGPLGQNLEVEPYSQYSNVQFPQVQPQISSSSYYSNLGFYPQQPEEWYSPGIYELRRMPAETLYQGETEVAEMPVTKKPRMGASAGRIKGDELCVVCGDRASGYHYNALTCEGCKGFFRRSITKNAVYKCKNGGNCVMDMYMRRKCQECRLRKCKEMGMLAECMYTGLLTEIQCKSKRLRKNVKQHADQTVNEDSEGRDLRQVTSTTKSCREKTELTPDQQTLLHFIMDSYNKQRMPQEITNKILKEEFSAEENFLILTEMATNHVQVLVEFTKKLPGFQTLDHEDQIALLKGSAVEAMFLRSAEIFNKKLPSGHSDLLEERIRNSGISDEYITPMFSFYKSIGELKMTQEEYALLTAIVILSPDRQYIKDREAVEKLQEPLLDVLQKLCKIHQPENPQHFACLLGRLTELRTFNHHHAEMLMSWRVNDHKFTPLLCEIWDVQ
- procedure-details: Human FXR (NR1H4) Assay (Gal4 promoter driven luciferase reporter, Indigo Bioscience kit IB00601)
- experimental-conditions: CHO reporter cells expressing human NR1H4; luciferase; 22 hours incubation; potency ranges
# EC50 per record follows

- structure-smiles: "CC(C)Oc1cc(C(=O)O)cc2sc(N3CCN4C(=O)[C@@H](OCc5c(-c6c(Cl)cccc6Cl)noc5C5CC5)C[C@@H]4C3)nc12"
  EC50: "> 1000 nM"
- structure-smiles: "CC(C)Oc1cc(C(=O)NS(=O)(=O)C2CC2)cc2sc(O[C@@H]3CO[C@H]4[C@@H]3OC[C@H]4OCc3c(-c4ccccc4OC(F)(F)F)noc3C3CC3)nc12"
  EC50: "30 to 200 nM"
- structure-smiles: "CC(C)Oc1cc(C(=O)NS(=O)(=O)C2(C)CC2)cc2sc(O[C@@H]3CO[C@H]4[C@@H]3OC[C@H]4OCc3c(-c4c(Cl)cccc4Cl)noc3C3CC3)nc12"
  EC50: "30 to 200 nM"
- structure-smiles: "CC(C)Oc1cc(C(=O)O)cc2sc(O[C@@H]3CO[C@H]4[C@@H]3OC[C@H]4OCc3c(-c4ccccc4OC(F)(F)F)noc3C3CC3)nc12"
  EC50: "< 30 nM"

API: value(readout=EC50, system=human FXR (NR1H4) (Homo sapiens, UniProt Q96RI1)) for record O=C(O)c1cc(F)c2nc(O[C@@H]3CO[C@H]4[C@@H]3OC[C@H]4OCc3c(-c4ccccc4OC(F)(F)F)noc3C3CC3)sc2c1
30 to 200 nM

Lookup: EC50 / human FXR (NR1H4) (Homo sapiens, UniProt Q96RI1) / CC(C)Oc1cc(C(=O)O)cc2sc([C@@]3(O)CO[C@@H]4[C@H](OCc5c(-c6c(Cl)cccc6Cl)noc5C5CC5)CO[C@@H]43)nc12
> 1000 nM

Tell me reported EC50 for CC(C)Oc1cc(C(=O)O)cc2sc(N3CCN4C[C@@H](OCc5c(-c6c(Cl)cccc6Cl)noc5C5CC5)C[C@@H]4C3)nc12 , tested with human FXR (NR1H4) (Homo sapiens, UniProt Q96RI1).
200 to 1000 nM

Notebook entry, human FXR (NR1H4) (Homo sapiens, UniProt Q96RI1) assay: EC50 of O=C(O)c1ccc2nc(O[C@@H]3CO[C@H]4[C@@H]3OC[C@H]4OCc3c(-c4c(Cl)cccc4Cl)noc3C3CC3)ccc2c1 = ?
30 to 200 nM

Please state recorded EC50 (tested on human FXR (NR1H4) (Homo sapiens, UniProt Q96RI1)) of CC(C)Oc1cc(C(=O)O)cc2sc(N3CCN4C(=O)[C@@H](OCc5c(-c6c(Cl)cccc6Cl)noc5C5CC5)C[C@H]4C3)nc12
30 to 200 nM

Provide the documented EC50 with human FXR (NR1H4) (Homo sapiens, UniProt Q96RI1) as the system for CC1(S(=O)(=O)NC(=O)c2ccc3nc(O[C@@H]4CO[C@H]5[C@@H]4OC[C@H]5OCc4c(-c5c(Cl)cccc5Cl)noc4C4CC4)sc3c2)CC1
200 to 1000 nM

// fetch human FXR (NR1H4) (Homo sapiens, UniProt Q96RI1) EC50 for CC(C)Oc1cc(C(=O)NS(=O)(=O)C2(C)CC2)cc2sc(O[C@@H]3CO[C@H]4[C@@H]3OC[C@H]4OCc3c(-c4ccccc4OC(F)(F)F)noc3C3CC3)nc12
30 to 200 nM

For the record CC(C)Oc1cc(C(=O)O)cc2sc(N3C[C@H]4C[C@@H](NCc5c(-c6c(Cl)cccc6Cl)noc5C5CC5)C[C@H]4C3)nc12 , what value of EC50 is listed for human FXR (NR1H4) (Homo sapiens, UniProt Q96RI1)?
200 to 1000 nM
